PROTOCOL TEXT: Cmax in C57BL/6 mouse at 24 mg/kg, ip measured upto 7 hrs by LC-MS/MS analysis
PARTICULARS: in vivo
EXPERIMENTAL ENDPOINT: Cmax (ng/mL)
Just the number in ng/mL, nothing appended.

Input O=C1CO[C@H]2CCN(C(=O)N3CCC(Cc4ccc(C(F)(F)F)cc4)CC3)C[C@H]2N1 (racemic) . Output Cmax: 12200

----------
PROTOCOL TEXT: Clearance in rat hepatocytes assessed per 10 million cells
Format: ADME, cell-based, Hepatocyte
EXPERIMENTAL ENDPOINT: hepatocyte CLint (µL/min/10^7 cells)
State the answer as a number, implicitly in µL/min/10^7 cells.

hepatocyte CLint reported for this molecule O=C1CO[C@H]2CCN(C(=O)N3CCC(Cc4ccc(C(F)(F)F)cc4)CC3)C[C@H]2N1 : 4
